Readings of DC50 for the listed compounds
Molecular target: IKZF2 (Homo sapiens (Human), UniProt Q96SW2+Q9UKS7)
Sequence (Q9UKS7 whole entry): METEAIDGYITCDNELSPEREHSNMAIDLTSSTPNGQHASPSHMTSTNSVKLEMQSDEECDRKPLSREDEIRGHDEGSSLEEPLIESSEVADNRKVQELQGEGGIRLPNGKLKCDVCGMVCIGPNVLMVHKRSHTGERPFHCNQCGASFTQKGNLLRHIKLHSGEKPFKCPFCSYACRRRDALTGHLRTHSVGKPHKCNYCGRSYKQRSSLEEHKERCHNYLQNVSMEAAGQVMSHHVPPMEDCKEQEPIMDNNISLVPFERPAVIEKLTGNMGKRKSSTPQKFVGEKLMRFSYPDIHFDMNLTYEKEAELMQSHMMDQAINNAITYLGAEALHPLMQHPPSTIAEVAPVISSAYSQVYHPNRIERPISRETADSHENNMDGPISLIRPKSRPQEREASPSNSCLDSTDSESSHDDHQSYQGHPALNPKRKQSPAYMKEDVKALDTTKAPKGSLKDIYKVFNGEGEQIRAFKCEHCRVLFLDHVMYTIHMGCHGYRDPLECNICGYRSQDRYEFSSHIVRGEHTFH
Sequence (Q96SW2 whole entry): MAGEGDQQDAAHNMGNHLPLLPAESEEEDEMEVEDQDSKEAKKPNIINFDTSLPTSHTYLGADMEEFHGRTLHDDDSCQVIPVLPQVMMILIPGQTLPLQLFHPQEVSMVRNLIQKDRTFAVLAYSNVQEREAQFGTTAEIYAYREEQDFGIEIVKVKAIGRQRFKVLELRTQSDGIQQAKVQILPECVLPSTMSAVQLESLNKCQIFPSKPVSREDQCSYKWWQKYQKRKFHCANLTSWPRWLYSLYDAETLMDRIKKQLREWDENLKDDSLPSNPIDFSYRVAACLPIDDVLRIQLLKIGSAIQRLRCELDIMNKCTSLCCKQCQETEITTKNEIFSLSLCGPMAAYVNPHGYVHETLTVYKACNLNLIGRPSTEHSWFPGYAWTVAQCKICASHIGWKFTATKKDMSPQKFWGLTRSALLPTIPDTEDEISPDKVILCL
Sequence (Q16531 whole entry partner): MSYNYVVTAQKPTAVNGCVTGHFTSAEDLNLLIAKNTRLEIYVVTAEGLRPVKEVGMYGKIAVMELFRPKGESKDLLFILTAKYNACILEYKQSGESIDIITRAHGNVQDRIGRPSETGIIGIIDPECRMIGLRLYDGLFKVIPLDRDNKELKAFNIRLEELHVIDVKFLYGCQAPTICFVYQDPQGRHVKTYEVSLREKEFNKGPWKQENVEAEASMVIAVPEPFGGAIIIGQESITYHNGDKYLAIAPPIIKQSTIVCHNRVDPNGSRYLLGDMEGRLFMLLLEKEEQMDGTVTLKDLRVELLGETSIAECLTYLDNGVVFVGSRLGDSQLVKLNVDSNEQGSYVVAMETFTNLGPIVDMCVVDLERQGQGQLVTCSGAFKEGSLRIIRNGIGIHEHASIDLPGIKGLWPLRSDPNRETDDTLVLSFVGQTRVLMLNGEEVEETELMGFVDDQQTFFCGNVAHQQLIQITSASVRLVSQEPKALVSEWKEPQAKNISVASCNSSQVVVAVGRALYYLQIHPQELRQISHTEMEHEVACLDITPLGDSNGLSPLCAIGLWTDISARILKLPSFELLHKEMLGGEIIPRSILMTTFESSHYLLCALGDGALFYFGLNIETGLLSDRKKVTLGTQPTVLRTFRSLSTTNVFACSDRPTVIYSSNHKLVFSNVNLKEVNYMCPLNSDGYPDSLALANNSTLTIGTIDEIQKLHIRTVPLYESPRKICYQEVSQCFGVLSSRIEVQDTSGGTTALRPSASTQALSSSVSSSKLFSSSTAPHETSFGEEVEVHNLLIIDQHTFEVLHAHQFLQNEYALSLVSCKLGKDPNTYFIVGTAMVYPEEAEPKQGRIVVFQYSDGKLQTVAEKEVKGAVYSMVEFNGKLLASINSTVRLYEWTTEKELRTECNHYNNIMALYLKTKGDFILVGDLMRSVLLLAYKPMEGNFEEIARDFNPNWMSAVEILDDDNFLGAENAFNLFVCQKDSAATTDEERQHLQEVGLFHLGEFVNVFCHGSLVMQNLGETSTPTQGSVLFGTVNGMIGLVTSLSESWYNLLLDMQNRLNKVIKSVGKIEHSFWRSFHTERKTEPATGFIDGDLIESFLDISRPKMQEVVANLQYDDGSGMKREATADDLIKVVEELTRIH
Assay: IKZF2 HiBiT Assay (Jurkat-IKZF2-HiBiT cell line)
Assay type: cell-based
Conditions: Jurkat-IKZF2-HiBiT cells, 24 hours; read-out: HiBit assay degradation analysis DC50

>  <compound>
O=C1CCC(N2Cc3c(ccc4c3OCC43CCN(Cc4ccc(-c5cn[nH]c5)cc4)CC3)C2=O)C(=O)N1 (stereo not shown) [Compound A162]

>  <quantity name>
DC50

>  <result>
50 to 200 nM

$$$$

In plain terms, O=C1CCC(N2Cc3c(ccc4c3OCC43CCN(Cc4ccc5nccn5c4)CC3)C2=O)C(=O)N1 (stereo not shown) [Compound A79] has a documented DC50 of > 500 nM

In plain terms, O=C1CCC(N2Cc3c(ccc4c3OCC43CCN(Cc4ccc5ncsc5c4)CC3)C2=O)C(=O)N1 (stereo not shown) [Compound A62] has a documented DC50 of 200 to 500 nM

In plain terms, CS(=O)(=O)c1ccccc1CN1CCC2(CC1)COc1c2ccc2c1CN(C1CCC(=O)NC1=O)C2=O (stereo not shown) [Compound A234] has a documented DC50 of > 500 nM

In plain terms, O=C1CC[C@H](N2Cc3c(ccc4c3OCC43CCN(Cc4cnn(CC5(c6ccccc6)CC5)c4)CC3)C2=O)C(=O)N1 [Compound A348] has a documented DC50 of < 50 nM

In plain terms, O=C1CCC(N2Cc3c(ccc4c3OCC43CCN(Cc4cccc(Cn5ccnc5)c4)CC3)C2=O)C(=O)N1 (stereo not shown) [Compound A139] has a documented DC50 of 200 to 500 nM

In plain terms, O=C1CCC(N2Cc3c(ccc4c3OCCC43CCN(CC4CCCCC4)CC3)C2=O)C(=O)N1 (stereo not shown) [Compound A14] has a documented DC50 of > 500 nM

* * *

Biological target: IKZF2 (Homo sapiens (Human), UniProt Q96SW2+Q9UKS7)
Experiment: IKZF2 HiBit Assay (HEK293T Flp-in-HiBiT cells)
Format: cell-based
Settings: HEK-293T; HEK293T Flp-in-HiBiT cells, 6 hrs; read-out: IKZF2 HiBit degradation Dmax
quantity name: Dmax

>  <molecule>
N#Cc1ccc(-n2cc(CN3CCC4(COc5c4ccc4c5CN([C@H]5CCC(=O)NC5=O)C4=O)C(F)(F)C3)cn2)cc1 (stereo partly shown)

>  <result>
60 to 80%

$$$$
>  <molecule>
O=C1CC[C@H](N2Cc3c(ccc4c3OC[C@@]43CCN(Cc4cccc(-c5cnn(C6COC6)c5)c4)CC3(F)F)C2=O)C(=O)N1

>  <result>
60 to 80%

$$$$
>  <molecule>
CC1CN(Cc2cccc(-c3cnn(C)c3)c2)CCC12COc1c2ccc2c1CN(C1CCC(=O)NC1=O)C2=O (stereo not shown)

>  <result>
20 to 40%

$$$$
>  <molecule>
O=C1CC[C@H](N2Cc3c(ccc4c3OCC43CCN(Cc4ccc5[nH]ncc5c4)CC3(F)F)C2=O)C(=O)N1 (stereo partly shown)

>  <result>
60 to 80%

$$$$
>  <molecule>
N#Cc1ccc(-n2cc(CN3CCC4(CC3)CNc3c4ccc4c3CN([C@H]3CCC(=O)NC3=O)C4=O)cn2)cc1

>  <result>
40 to 60%

$$$$

In plain terms, O=C1CCC(N2Cc3c(ccc4c3OCC43CCN(Cc4cccc5cn[nH]c45)CC3O)C2=O)C(=O)N1 (stereo not shown) has a documented Dmax of 60 to 80%

In plain terms, Cn1cc2ccc(CN3CCC4(COc5c4ccc4c5CN([C@H]5CCC(=O)NC5=O)C4=O)C(F)(F)C3)cc2n1 (stereo partly shown) has a documented Dmax of 60 to 80%

In plain terms, O=C1CC[C@H](N2Cc3c(ccc4c3OCC43CCN(Cc4cnn(S(=O)(=O)c5ccccc5Cl)c4)CC3(F)F)C2=O)C(=O)N1 (stereo partly shown) has a documented Dmax of > 80%

In plain terms, Cn1cc(-c2cccc(CN3CCC4(COc5c4ccc4c5CN(C5CCC(=O)NC5=O)C4=O)C(F)(F)C3)c2)cn1 (stereo not shown) has a documented Dmax of > 80%

In plain terms, O=C1CC[C@H](N2Cc3c(ccc4c3OCC43CCN(Cc4cnn(CC5CCOCC5)c4)CC3)C2=O)C(=O)N1 has a documented Dmax of 60 to 80%

In plain terms, [2H]C([2H])([2H])n1cc(-c2cccc(CN3CCC4(COc5c4ccc4c5CN([C@H]5CCC(=O)NC5=O)C4=O)C(F)(F)C3)c2)cn1 (stereo partly shown) has a documented Dmax of > 80%

In plain terms, Cn1cc(-c2cccc(CN3CCC4(CC3)CNc3c4ccc4c3CN([C@H]3CCC(=O)NC3=O)C4=O)c2)cn1 has a documented Dmax of 60 to 80%

In plain terms, O=C1CC[C@H](N2Cc3c(ccc4c3OCC43CCN(Cc4cccc(-c5cnn(C6COC6)c5)c4)CC3(F)F)C2=O)C(=O)N1 (stereo partly shown) has a documented Dmax of 60 to 80%
